Source listed as ChEMBL document CHEMBL4417631.

Target entity: Interleukin-23 receptor (Homo sapiens, UniProt Q5VWK5)
Sequence (Q5VWK5 whole entry): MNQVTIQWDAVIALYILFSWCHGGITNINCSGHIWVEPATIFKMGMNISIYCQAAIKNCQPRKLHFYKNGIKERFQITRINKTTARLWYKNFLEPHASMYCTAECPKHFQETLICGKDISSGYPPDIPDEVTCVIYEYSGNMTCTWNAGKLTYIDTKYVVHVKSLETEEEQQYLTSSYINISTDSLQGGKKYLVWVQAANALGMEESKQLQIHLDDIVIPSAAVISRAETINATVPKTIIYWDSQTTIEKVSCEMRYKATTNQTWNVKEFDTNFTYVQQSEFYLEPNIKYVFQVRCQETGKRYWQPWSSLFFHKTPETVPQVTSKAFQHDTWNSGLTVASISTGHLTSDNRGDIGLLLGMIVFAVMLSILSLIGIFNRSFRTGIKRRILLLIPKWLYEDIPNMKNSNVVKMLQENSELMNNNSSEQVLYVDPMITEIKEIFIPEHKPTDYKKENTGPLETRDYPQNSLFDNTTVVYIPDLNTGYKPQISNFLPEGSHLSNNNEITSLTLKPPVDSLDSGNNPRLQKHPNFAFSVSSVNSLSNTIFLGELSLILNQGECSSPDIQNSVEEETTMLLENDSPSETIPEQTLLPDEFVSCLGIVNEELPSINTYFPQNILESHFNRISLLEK
Assay protocol: Inhibition of interleukin-23 receptor in human DB cells assessed as reduction in IL-23-stimulated STAT3 phosphorylation incubated for 30 mins by HTRF assay
Format: cell-based
pIC50: −log10 of the molar value.
Measured property: pIC50

Consider the worked cases shown below.
1. CC(=O)N[C@H]1CCSC[C@@H](C(=O)N[C@@H](Cc2ccc(O)cc2)C(=O)N[C@@H](Cc2c[nH]c3ccccc23)C(=O)N[C@@H](CCC(C)C)C(=O)N[C@@H](CCC(=O)O)C(=O)N[C@@H](CC(N)=O)C(=O)NCC(N)=O)NC(=O)[C@H](CCC(N)=O)NC(=O)[C@H](Cc2c[nH]c3ccccc23)NC(=O)[C@H]([C@@H](C)O)NC(=O)[C@H](CCC(N)=O)NC1=O	7.60 to 8.00
2. CC(=O)NCCCC[C@H](NC(=O)[C@](C)(CCCCN)NC(=O)[C@H](Cc1ccc2ccccc2c1)NC(=O)[C@H](Cc1ccc(OCCN)cc1)NC(=O)[C@@H](NC(=O)[C@H](CCC(N)=O)NC(=O)[C@H](Cc1c[nH]c2ccccc12)NC(=O)[C@@H](NC(=O)[C@H](CCC(N)=O)NC(=O)[C@@H](NC(C)=O)C(C)(C)S)[C@@H](C)O)C(C)(C)S)C(=O)N[C@@H](CC(N)=O)C(=O)N[C@@H](CC(N)=O)C(N)=O	> 8.00

Now turn to the next compound.
Using the record for COc1ccc(C[C@H](NC(=O)[C@@H](NC(=O)[C@H](CCC(N)=O)NC(=O)[C@H](Cc2c[nH]c3ccccc23)NC(=O)[C@@H](NC(=O)[C@H](CCC(N)=O)NC(=O)[C@@H](NC(C)=O)C(C)(C)S)[C@@H](C)O)C(C)(C)S)C(=O)N[C@@H](Cc2ccc3ccccc3c2)C(=O)N[C@](C)(C(=O)N[C@@H](CCCCNC(C)=O)C(=O)N[C@@H](CC(N)=O)C(=O)N[C@@H](CC(N)=O)C(=O)N[C@@H](N)CCCCN)C(C)C)cc1 , state its measured pIC50. > 8.00

---

Target entity: Interleukin-23 receptor (Homo sapiens)
Assay protocol: Inhibition of interleukin-23 receptor in human DB cells assessed as reduction in IL-23-stimulated STAT3 phosphorylation incubated for 30 mins by HTRF assay
Type: cell-based
Measured property: IC50

Using the record for CC(=O)NCCOc1ccc(C[C@H](NC(=O)[C@@H](NC(=O)[C@H](CCC(N)=O)NC(=O)[C@H](Cc2c[nH]c3ccccc23)NC(=O)[C@@H](NC(=O)[C@H](CCC(N)=O)NC(=O)[C@@H](NC(C)=O)C(C)(C)S)[C@@H](C)O)C(C)(C)S)C(=O)N[C@@H](Cc2ccc3ccccc3c2)C(=O)N[C@](C)(C(=O)N[C@@H](CCCCN)C(=O)N[C@@H](CC(N)=O)C(=O)N[C@@H](CC(N)=O)C(N)=O)C(C)C)cc1 , state its measured IC50. < 10 nM

Using the record for CC(=O)NCCCC[C@H](NC(=O)[C@H](CCCCN)NC(=O)[C@H](Cc1ccc2ccccc2c1)NC(=O)[C@H](Cc1ccc(OCCNC(C)=O)cc1)NC(=O)[C@@H](NC(=O)[C@H](CCC(N)=O)NC(=O)[C@H](Cc1c[nH]c2ccccc12)NC(=O)[C@@H](NC(=O)[C@H](CCC(N)=O)NC(=O)[C@@H](NC(C)=O)C(C)(C)S)[C@@H](C)O)C(C)(C)S)C(=O)N[C@@H](CC(N)=O)C(=O)N[C@@H](CC(N)=O)C(N)=O , state its measured IC50. 25 to 100 nM

Using the record for CC(=O)N[C@H](C(=O)N[C@@H](CCC(N)=O)C(=O)N[C@H](C(=O)N[C@@H](Cc1c[nH]c2ccccc12)C(=O)N[C@@H](CCC(N)=O)C(=O)N[C@H](C(=O)N[C@@H](Cc1ccc(O)cc1)C(=O)N[C@@H](Cc1ccc2ccccc2c1)C(=O)N[C@@](C)(CCCN)C(=O)N[C@@H](CCC(=O)O)C(=O)N[C@@H](CC(N)=O)C(=O)NCC(N)=O)C(C)(C)S)[C@@H](C)O)C(C)(C)S , state its measured IC50. 10 to 25 nM

---

Target entity: Interleukin-23 receptor (Homo sapiens, UniProt Q5VWK5)
Assay protocol: Inhibition of interleukin-23 binding to human interleukin-23 receptor incubated for 2 hrs by competitive binding ELISA
pIC50: −log10 of the molar value. Where a SMILES comes first, the peptide text is derived from it.
Below: a set of entries, each annotated with reported pIC50.

Consider the worked cases shown below.
1) CC(=O)N[C@@H](CS)C(=O)N[C@@H](CCC(N)=O)C(=O)N[C@H](C(=O)N[C@@H](Cc1c[nH]c2ccccc12)C(=O)N[C@@H](CCC(N)=O)C(=O)N[C@@H](CS)C(=O)N[C@@H](Cc1ccc(O)cc1)C(=O)N[C@@H](Cc1c[nH]c2ccccc12)C(=O)N[C@@H](CCCNC(N)=O)C(=O)N[C@@H](CN)C(=O)N[C@@H](Cc1ccccc1)C(=O)NCC(=O)NCCOCC(=O)N[C@H](CCCCN)C(N)=O)[C@@H](C)O	5.00 to 7.60
2) CC(=O)N[C@@H](CS)C(=O)N[C@@H](C)C(=O)N[C@@H](CC(=O)O)C(=O)N[C@@H](Cc1c[nH]c2ccccc12)C(=O)N[C@H](C(=O)N[C@@H](CS)C(=O)N[C@@H](Cc1ccc(O)cc1)C(=O)N[C@@H](Cc1c[nH]c2ccccc12)C(=O)N[C@H](Cc1cnc[nH]1)C(=O)N[C@H](C(=O)N[C@@H](Cc1ccccc1)C(=O)NCC(=O)NCCOCC(=O)N[C@H](CCCCN)C(N)=O)[C@@H](C)O)C(C)C	6.00 to 7.00
3) CC[C@H](C)[C@H](NC(=O)[C@H](Cc1cnc[nH]1)NC(=O)[C@H](Cc1c[nH]c2ccccc12)NC(=O)[C@H](Cc1ccc(O)cc1)NC(=O)[C@H](CS)NC(=O)[C@H](CCCCN)NC(=O)[C@H](Cc1c[nH]c2ccccc12)NC(=O)[C@H](CC(=O)O)NC(=O)[C@H](CCCCN)NC(=O)[C@@H](N)CS)C(=O)N[C@@H](Cc1ccc(O)cc1)C(=O)NCC(N)=O (H-CKDWKCYWHIYG-NH2)	< 6.00

Using the record for CC(=O)N[C@@H](CS)C(=O)N[C@@H](C)C(=O)N[C@@H](CC(=O)O)C(=O)N[C@@H](Cc1c[nH]c2ccccc12)C(=O)N[C@H](C(=O)N[C@@H](CS)C(=O)N[C@@H](Cc1ccc(O)cc1)C(=O)N[C@@H](Cc1c[nH]c2ccccc12)C(=O)N[C@@H](Cc1cnc[nH]1)C(=O)N[C@H](C(=O)N[C@@H](Cc1ccccc1)C(=O)NCC(=O)N[C@@H](C)C(=O)N[C@H](CCCCN)C(=O)O)[C@@H](C)O)C(C)C , state its measured pIC50. > 6.30

Using the record for CC(C)[C@H](NC(=O)[C@H](Cc1c[nH]c2ccccc12)NC(=O)[C@H](CC(=O)O)NC(=O)[C@H](C)NC(=O)[C@@H](N)CS)C(=O)N[C@@H](CS)C(=O)N[C@@H](Cc1ccc(O)cc1)C(=O)N[C@@H](Cc1c[nH]c2ccccc12)C(=O)N[C@@H](Cc1cnc[nH]1)C(=O)N[C@H](C(=O)N[C@@H](Cc1ccccc1)C(=O)NCC(=O)N[C@@H](CCCCN)C(=O)O)[C@@H](C)O , state its measured pIC50. < 6.00

---

Target entity: Interleukin-23 receptor (Homo sapiens)
Assay protocol: Inhibition of interleukin-23 binding to human interleukin-23 receptor incubated for 2 hrs by competitive binding ELISA
Where a SMILES comes first, the peptide text is derived from it.
Measured property: IC50

1. CC(=O)NCCCC[C@H](NC(=O)C(C)(C)NC(=O)[C@H](Cc1cccc2ccccc12)NC(=O)[C@H](Cc1ccc(OCCN)cc1)NC(=O)[C@@H]1CSCC[C@H](NC(C)=O)C(=O)N[C@@H](CCC(N)=O)C(=O)N[C@@H]([C@@H](C)O)C(=O)N[C@@H](Cc2c[nH]c3ccccc23)C(=O)N[C@@H](CCC(N)=O)C(=O)N1)C(=O)N[C@@H](CC(N)=O)C(=O)NCC(N)=O	25 to 100 nM

Now turn to the next molecule.
Using the record for CC(=O)N[C@@H](CS)C(=O)N[C@@H](CCC(N)=O)C(=O)N[C@H](C(=O)N[C@@H](Cc1c[nH]c2ccccc12)C(=O)N[C@@H](CCC(=O)O)C(=O)N[C@@H](CS)C(=O)N[C@@H](Cc1ccc(O)cc1)C(=O)N[C@@H](Cc1c[nH]c2ccccc12)C(=O)N[C@@H](Cc1cnc[nH]1)C(=O)N[C@@H](CC(C)C)C(=O)N[C@@H](Cc1ccc(O)cc1)C(=O)NCC(N)=O)[C@@H](C)O (Ac-CQTWECYWHLYG-NH2) , state its measured IC50. < 500 nM
